System: MCF7
Assay: Antiestrogenic activity in human MCF7 cells assessed as drug level causing inhibition of 100 pM E2-enhanced cell proliferation to level equivalent to 1 pM E2 after 96 hrs by alamar blue assay
Assay type: functional
observation-type: Activity

Example results:
molecule	Activity
COc1cc(O[C@@H]2O[C@H](CO)[C@@H](O)[C@H](O)[C@H]2O)ccc1O [TACHIOSIDE]	>100 µM
C[C@@H](/C=C/[C@]1(O)[C@]2(C)CO[C@@]1(C)CC(=O)C2)O[C@@H]1O[C@H](CO)[C@@H](O)[C@H](O)[C@H]1O [SPIONOSIDE B]	15 µM
COc1cc([C@H]2OC[C@H]3[C@@H]2CO[C@@H]3c2cc(OC)c(O[C@@H]3O[C@H](CO)[C@@H](O)[C@H](O)[C@H]3O)c(OC)c2)cc(OC)c1O	<0.1 µM

**Query** # Activity lookup, item COc1cc([C@H]2OC[C@H]3[C@@H]2CO[C@@H]3c2cc(OC)c(O)c(OC)c2)ccc1O[C@@H]1O[C@H](CO)[C@@H](O)[C@H](O)[C@H]1O
**Result** <0.1 µM

**Query** What measured Activity goes with COc1cc([C@H]2Oc3c(OC)cc(/C=C/CO)cc3[C@@H]2CO)ccc1O[C@@H]1O[C@H](CO)[C@@H](O)[C@H](O)[C@H]1O ?
**Result** >100 µM
